tested.system: CXCL1_HUMAN
assay.details: BLI
parameter.measured: Kd (nM)
Numbers only, in nM.

Consider the binder shown here: P1156_IXORI (other) ADDDNELFTVQYCGMNCTKDEGGTWTGCTGKKEGCKCYHESGKNYGLCLSTEYTDFSQYGNPSDSEIEAAKPKRSDTLSH What is its recorded Kd?
3.25
